Cited source for all entries: ChEMBL document CHEMBL1833833

system: Rattus norvegicus; assay: Unbound clearance in rat at 0.5 mg/kg, iv; format: ADME, organism-based; parameters: dose 0.5 mg/kg, route intravenous; conditions: in vivo

compound	experimental_target	CL free
CCC(=O)O[C@]1(C(=O)SCF)[C@H](C)C[C@H]2[C@@H]3C[C@H](F)C4=CC(=O)C=C[C@]4(C)[C@@]3(F)[C@@H](O)C[C@@]21C [FLUTICASONE PROPIONATE]	Rattus norvegicus	1800 mL/min/kg
CSc1cccc(Sc2ccc([C@@H]3O[C@@H]4C[C@H]5[C@@H]6C[C@H](F)C7=CC(=O)C=C[C@]7(C)[C@@]6(F)[C@@H](O)C[C@]5(C)[C@]4(C(=O)CO)O3)cc2)c1	Rattus norvegicus	> 18000 mL/min/kg
C[C@]12C=CC(=O)C=C1[C@@H](F)C[C@H]1[C@@H]3C[C@H]4O[C@@H](c5ccc(CSc6ccc(O)c(Cl)c6)cc5)O[C@@]4(C(=O)CO)[C@@]3(C)C[C@H](O)[C@@]12F	Rattus norvegicus	> 59000 mL/min/kg
